# Test name: Apparent permeability from apical to basolateral side of human Caco2 cells
# Test conditions: Caco-2
Each entry below lists one item and its recorded Papp A→B value.
Provide the reading as a plain figure in ×10⁻⁶ cm/s.

Worked examples follow.
{"columns": ["Smiles str", "Papp A→B (×10⁻⁶ cm/s)"],
 "data": [
  ["COC(=O)N1CCc2nc(C)n([C@H]3C[C@H]4CC[C@@H](C3)N4CC[C@H](NC(C)=O)c3ccccc3)c2C1", 3],
  ["COC(=O)N[C@@H](CCN1[C@@H]2CC[C@H]1C[C@@H](n1c(C)nc3c1CN(C(C)=O)CC3)C2)c1cccc(F)c1", 6]
]}

Prompt: Look up Papp A→B: `COC(=O)N[C@@H](CCN1[C@@H]2CC[C@H]1C[C@@H](n1c(C)nc3c1CN(C(C)=O)CC3)C2)c1ccccc1`
Response: 4

###

# Test name: Octanol-buffer partition coefficient, log D of the compound
Quantity name: logD
Quick one: just the number, no unit, thanks!

Worked examples follow.
{"columns": ["Smiles str", "Data value"],
 "data": [
  ["COC(=O)N1CCc2c(nc(C)n2[C@H]2C[C@H]3CC[C@@H](C2)N3CC[C@H](NC(C)=O)c2cccc(F)c2)C1", 1.9],
  ["CC(=O)N[C@@H](CCN1[C@@H]2CC[C@H]1C[C@@H](n1c(C)nc3c1CCN(c1ccncn1)C3)C2)c1cccc(F)c1", 2.6],
  ["CC(=O)N[C@@H](CCN1[C@@H]2CC[C@H]1C[C@@H](n1c(C)nc3c1CN(C(=O)OC(C)C)CC3)C2)c1ccccc1", 2.7],
  ["CC(=O)N[C@@H](CCN1[C@@H]2CC[C@H]1C[C@@H](n1c(C)nc3c1CN(C)CC3)C2)c1ccccc1", 0.4],
  ["CC(=O)N[C@@H](CCN1[C@@H]2CC[C@H]1C[C@@H](n1c(C)nc3c1CN(S(C)(=O)=O)CC3)C2)c1ccccc1", 0.9]
]}

Prompt: Look up logD: `CC(=O)N[C@@H](CCN1[C@@H]2CC[C@H]1C[C@@H](n1c(C)nc3c1CCN(C(=O)C(C)(C)C)C3)C2)c1cccc(F)c1`
Response: 2.8

Prompt: How about `COC(=O)N[C@@H](CCN1[C@@H]2CC[C@H]1C[C@@H](n1c(C)nc3c1CN(C(C)=O)CC3)C2)c1ccccc1` ?
Response: 1.4

###

Each entry below lists one item and its recorded microsomal CLint value.
# Test name: Intrinsic clearance in human liver microsomes assessed per mg of protein
# Format: ADME, Microsome

{"columns": ["Smiles str", "microsomal CLint"],
 "data": [
  ["CC(=O)N[C@@H](CCN1[C@@H]2CC[C@H]1C[C@@H](n1c(C)nc3c1CN(C)CC3)C2)c1ccccc1", "< 7 µL/min/mg"],
  ["CC(=O)N[C@@H](CCN1[C@@H]2CC[C@H]1C[C@@H](n1c(C)nc3c1CN(C(C)=O)CC3)C2)c1ccccc1", "< 7 µL/min/mg"]
]}

Consider now this further compound.
Prompt: Look up microsomal CLint: `CCC(=O)N1CCc2nc(C)n([C@H]3C[C@H]4CC[C@@H](C3)N4CC[C@H](NC(C)=O)c3ccccc3)c2C1`
Response: < 7 µL/min/mg

###

Each entry below lists one item and its recorded Papp B→A value.
# Test name: Apparent permeability from basolateral to apical side of human Caco2 cells
# Test conditions: Caco-2
Provide the reading as a plain figure in ×10⁻⁶ cm/s.

{"columns": ["Smiles str", "Data value"],
 "data": [
  ["CC(=O)N[C@@H](CCN1[C@@H]2CC[C@H]1C[C@@H](n1c(C)nc3c1CN(C)CC3)C2)c1ccccc1", 9],
  ["CC(=O)N[C@@H](CCN1[C@@H]2CC[C@H]1C[C@@H](n1c(C)nc3ccccc31)C2)c1ccccc1", 35]
]}

Consider now this further compound.
Prompt: Look up Papp B→A: `CC(=O)N[C@@H](CCN1[C@@H]2CC[C@H]1C[C@@H](n1c(C)nc3c1CN(C(=O)C(C)C)CC3)C2)c1ccccc1`
Response: 20
